Measured Kd, listed per entry for reference.
# procedure.text: Binding affinity to synthetic lipid 2 analogue fl-LPII
Your answer should be a plain number; it is taken to be in µM.

# compound, result.unit, Kd
data = [
    ("CC(C)C/C=C/C=C/C(=O)N[C@@H](CC(N)=O)C(=O)N[C@H]1CNC(=O)[C@H](c2ccc(O)c(Cl)c2)NC(=O)[C@@H](C)NC(=O)[C@H](CC(C)C)NC(=O)CNC(=O)[C@H](c2ccc(O)cc2)NC(=O)[C@@H]([C@@H](C)O)NC(=O)[C@H](c2ccc(O)cc2)NC(=O)[C@@H](CCCN)NC(=O)C(C)NC(=O)[C@H]([C@H](C)O)NC(=O)[C@@H](c2ccc(O)cc2)NC(=O)[C@H](c2ccc(O)cc2)NC(=O)[C@@H]([C@@H](C)O)NC(=O)[C@@H](CCCN)NC(=O)[C@@H](c2ccc(O)cc2)NC1=O (single isomer, unassigned)", "µM", 0.383),
]

Field: next compound
[ask] Item CC(C)C/C=C/C=C/C(=O)N[C@@H](CC(N)=O)C(=O)N[C@H]1CNC(=O)[C@H](c2ccc(O)c(Cl)c2)NC(=O)[C@@H](C)NC(=O)[C@H](CC(C)C)NC(=O)CNC(=O)[C@H](c2ccc(O)cc2)NC(=O)[C@@H]([C@@H](C)O)NC(=O)[C@H](C)NC(=O)[C@@H](CCCN)NC(=O)[C@H](Cc2ccccc2)NC(=O)[C@H]([C@H](C)O)NC(=O)[C@@H](c2ccc(O)cc2)NC(=O)[C@H](c2ccc(O)cc2)NC(=O)[C@@H]([C@@H](C)O)NC(=O)[C@@H](CCCN)NC(=O)[C@@H](c2ccc(O)cc2)NC1=O : provide Kd
[reply] 6.3

----------
// reported pKd per item
# procedure.text: Binding affinity to synthetic lipid 2 analogue fl-LPII
Scale: pKd equals -log10([C]), with [C] in mol/L.

# compound, pKd
measured = [
    ("CC(C)C/C=C/C=C/C(=O)N[C@@H](CC(N)=O)C(=O)N[C@H]1CNC(=O)[C@H](c2ccc(O)c(Cl)c2)NC(=O)[C@@H](C)NC(=O)[C@H](CC(C)C)NC(=O)CNC(=O)[C@H](c2ccc(O)cc2)NC(=O)[C@@H]([C@@H](C)O)NC(=O)[C@H](c2ccc(O)cc2)NC(=O)[C@@H](CCCN)NC(=O)[C@H](Cc2ccccc2)NC(=O)[C@H](C)NC(=O)[C@@H](c2ccc(O)cc2)NC(=O)[C@H](c2ccc(O)cc2)NC(=O)[C@@H]([C@@H](C)O)NC(=O)[C@@H](CCCN)NC(=O)[C@@H](c2ccc(O)cc2)NC1=O", 5.06),
    ("CC(C)C/C=C/C=C/C(=O)N[C@@H](CC(N)=O)C(=O)N[C@H]1CNC(=O)[C@H](c2ccc(O)c(Cl)c2)NC(=O)[C@@H](C)NC(=O)[C@H](CC(C)C)NC(=O)CNC(=O)[C@H](c2ccc(O)cc2)NC(=O)[C@@H]([C@@H](C)O)NC(=O)[C@H](c2ccc(O)cc2)NC(=O)[C@@H](CCCN)NC(=O)[C@H](Cc2ccccc2)NC(=O)[C@H]([C@H](C)O)NC(=O)[C@@H](c2ccc(O)cc2)NC(=O)[C@H](c2ccc(O)cc2)NC(=O)[C@@H]([C@@H](C)O)NC(=O)[C@H](C)NC(=O)[C@@H](c2ccc(O)cc2)NC1=O", 5.37),
    ("CC(C)C/C=C/C=C/C(=O)N[C@@H](CC(N)=O)C(=O)N[C@H]1CNC(=O)[C@H](c2ccc(O)c(Cl)c2)NC(=O)[C@@H](C)NC(=O)[C@H](CC(C)C)NC(=O)CNC(=O)[C@H](c2ccc(O)cc2)NC(=O)[C@@H]([C@@H](C)O)NC(=O)[C@H](c2ccc(O)cc2)NC(=O)C(C)NC(=O)[C@H](Cc2ccccc2)NC(=O)[C@H]([C@H](C)O)NC(=O)[C@@H](c2ccc(O)cc2)NC(=O)[C@H](c2ccc(O)cc2)NC(=O)[C@@H]([C@@H](C)O)NC(=O)[C@@H](CCCN)NC(=O)[C@@H](c2ccc(O)cc2)NC1=O (single isomer, unassigned)", 5.19),
]

# ---- query compound ----
[ask] Please give the documented pKd of CC(C)C/C=C/C=C/C(=O)N[C@@H](CC(N)=O)C(=O)N[C@H]1CNC(=O)[C@H](c2ccc(O)c(Cl)c2)NC(=O)[C@@H](C)NC(=O)[C@H](CC(C)C)NC(=O)CNC(=O)[C@H](c2ccc(O)cc2)NC(=O)[C@@H]([C@@H](C)O)NC(=O)[C@H](c2ccc(O)cc2)NC(=O)[C@@H](CCCN)NC(=O)[C@H](Cc2ccccc2)NC(=O)[C@H]([C@H](C)O)NC(=O)[C@H](C)NC(=O)[C@H](c2ccc(O)cc2)NC(=O)[C@@H]([C@@H](C)O)NC(=O)[C@@H](CCCN)NC(=O)[C@@H](c2ccc(O)cc2)NC1=O
[reply] 5.92

----------
# System: Escherichia coli
# procedure.text: Inhibition of Escherichia coli PBP1b-mediated lipid 2 incorporation into peptidoglycon at 6 uM
Activity calls are given as the source filed them. No cut-off for these calls is given here.
Please answer using one outcome listed in yes (1) for active, no (0) for inactive

Record excerpt, results attached:
# compound, system.tested, cat
records = [
    ("CC(C)C/C=C/C=C/C(=O)N[C@@H](CC(N)=O)C(=O)N[C@H]1CNC(=O)[C@H](c2ccc(O)c(Cl)c2)NC(=O)[C@@H](C)NC(=O)[C@H](CC(C)C)NC(=O)CNC(=O)[C@H](c2ccc(O)cc2)NC(=O)[C@H](C)NC(=O)[C@H](c2ccc(O)cc2)NC(=O)[C@@H](CCCN)NC(=O)[C@H](Cc2ccccc2)NC(=O)[C@H]([C@H](C)O)NC(=O)[C@@H](c2ccc(O)cc2)NC(=O)[C@H](c2ccc(O)cc2)NC(=O)[C@@H]([C@@H](C)O)NC(=O)[C@@H](CCCN)NC(=O)[C@@H](c2ccc(O)cc2)NC1=O", "Escherichia coli", "no (0)"),
    ("CC(C)C/C=C/C=C/C(=O)N[C@@H](CC(N)=O)C(=O)N[C@H]1CNC(=O)[C@H](c2ccc(O)c(Cl)c2)NC(=O)[C@@H](C)NC(=O)[C@H](CC(C)C)NC(=O)CNC(=O)[C@H](c2ccc(O)cc2)NC(=O)[C@@H]([C@@H](C)O)NC(=O)[C@H](c2ccc(O)cc2)NC(=O)[C@@H](CCCN)NC(=O)C(C)NC(=O)[C@H]([C@H](C)O)NC(=O)[C@@H](c2ccc(O)cc2)NC(=O)[C@H](c2ccc(O)cc2)NC(=O)[C@@H]([C@@H](C)O)NC(=O)[C@@H](CCCN)NC(=O)[C@@H](c2ccc(O)cc2)NC1=O (single isomer, unassigned)", "Escherichia coli", "yes (1)"),
]

[ask] Recorded call for CC(C)C/C=C/C=C/C(=O)N[C@@H](CC(N)=O)C(=O)N[C@H]1CNC(=O)[C@H](c2ccc(O)c(Cl)c2)NC(=O)[C@@H](C)NC(=O)[C@H](CC(C)C)NC(=O)CNC(=O)[C@H](c2ccc(O)cc2)NC(=O)[C@@H]([C@@H](C)O)NC(=O)[C@H](c2ccc(O)cc2)NC(=O)[C@@H](CCCN)NC(=O)[C@H](Cc2ccccc2)NC(=O)[C@H](C)NC(=O)[C@@H](c2ccc(O)cc2)NC(=O)[C@H](c2ccc(O)cc2)NC(=O)[C@@H]([C@@H](C)O)NC(=O)[C@@H](CCCN)NC(=O)[C@@H](c2ccc(O)cc2)NC1=O ?
[reply] no (0)
